Entry source: patent US8471027B2

# System: phospho(Ser63)-c-jun in HK-2 cells
# EXPERIMENTAL PROTOCOL: Cell-based assay for JNK inhibitors: in-cell ELISA of TNFα-stimulated phospho(Ser63)-c-jun in HK-2 cells
# EXPERIMENTAL CONTEXT: Homo sapiens, 10 ng/mL TNFα, 60 min preincubation with compound
pEC50: −log10 of the molar value.
Returns t if the recorded pEC50 is greater than or equal to 5, and f otherwise.

COMPOUND	CATEGORY LABEL
COC(=O)c1c(Cc2ccc(C(=O)N[C@@H]3[C@@H]4C[C@@H]5C[C@H]3C[C@@](NS(=O)(=O)C3CC3)(C5)C4)cc2)c(=O)c2ccc(Cl)cc2n1-c1ccccc1 [Compound I-14]	t
COC(=O)c1c(Cc2ccc(C(=O)N[C@@H]3[C@@H]4C[C@@H]5C[C@H]3C[C@@](O)(C5)C4)cc2)c(=O)c2cccnc2n1-c1ccccc1 [Compound I-1]	t
COC(=O)c1c(Cc2ccc(C(=O)N[C@@H]3[C@@H]4C[C@@H]5C[C@H]3C[C@@](NC(=O)C(C)(C)OC(C)=O)(C5)C4)cc2)c(=O)c2ccc(Cl)cc2n1-c1ccccc1 [Compound I-12]	t
COC(=O)c1c(Cc2ccc(S(C)(=O)=O)cc2)c(=O)c2ccc(Cl)cc2n1-c1ccccc1 [reference compound]	f
COC(=O)c1c(Cc2ccc(C(=O)N[C@@H]3[C@@H]4C[C@@H]5C[C@H]3C[C@@](NC(C)=O)(C5)C4)cc2)c(=O)c2ccc(Cl)cc2n1-c1ccccc1 [Compound I-10]	t
COC(=O)c1c(Cc2ccc(C(=O)N[C@@H]3[C@@H]4C[C@@H]5C[C@H]3C[C@@](NC(=O)C(C)(C)O)(C5)C4)cc2)c(=O)c2cccnc2n1-c1ccccc1 [Compound I-22]	t
COC(=O)c1c(Cc2ccc(C(=O)N[C@H]3[C@@H]4C[C@@H]5C[C@H]3C[C@@](N)(C5)C4)cc2)c(=O)c2cccnc2n1-c1ccccc1 [Compound I-8]	f
COC(=O)c1c(Cc2ccc(C(=O)N[C@H]3[C@@H]4C[C@@H]5C[C@H]3C[C@@](O)(C5)C4)cc2)c(=O)c2ccc(Cl)cc2n1-c1ccccc1 [Compound I-4]	t
COC(=O)c1c(Cc2ccc(C(=O)N[C@@H]3[C@@H]4C[C@@H]5C[C@H]3C[C@@](N)(C5)C4)cc2)c(=O)c2ccc(Cl)cc2n1-c1ccccc1 [Compound I-9]	t
